Listed here are compounds together with their documented GI50.
System: A2780
Assay: Growth inhibition of human A2780 cells after 72 hrs y MTT assay
Type: functional
Conditions: A2780, 72 h

Examples from the recorded data:
COMPOUND | SYSTEM | GI50
CC(C)(C)O[C@H]1OC(=O)[C@H]2[C@@H]1[C@@H]1CC[C@H]2O1 | A2780 | > 100 µM
C=CCO[C@@H]1OC(=O)[C@H]2[C@@H]1[C@@H]1CC[C@H]2O1 | A2780 | > 100 µM
O=C1O[C@H](OCCCOP(=O)(OCC(Cl)(Cl)Cl)OCC(Cl)(Cl)Cl)[C@@H]2[C@H]1[C@H]1CC[C@@H]2O1 | A2780 | 81 µM
O=C1O[C@H](O)[C@@H]2[C@H]1[C@H]1CC[C@@H]2O1 | A2780 | > 100 µM
CCCCCCO[C@@H]1OC(=O)[C@H]2[C@@H]1[C@@H]1CC[C@H]2O1 | A2780 | > 100 µM

Task: Request the reported GI50 associated with CCOP(=O)(OCC)OCCCO[C@H]1OC(=O)[C@H]2[C@@H]1[C@@H]1CC[C@H]2O1
Result: 22 µM

Task: Same read-out for C#CCCCCO[C@H]1OC(=O)[C@H]2[C@@H]1[C@@H]1CC[C@H]2O1 ?
Result: > 100 µM

Task: What about CCO[C@H]1OC(=O)[C@H]2[C@@H]1[C@@H]1CC[C@H]2O1 ?
Result: > 100 µM

Task: Okay, and C/C=C/CO[C@@H]1OC(=O)[C@H]2[C@@H]1[C@@H]1CC[C@H]2O1 ?
Result: > 100 µM

Task: CCCCOC1OC(=O)[C@H]2[C@@H]1[C@@H]1CC[C@H]2O1 (single isomer, unassigned) , same question.
Result: > 100 µM

Task: Please give the result for CCCCCCCCO[C@H]1OC(=O)[C@H]2[C@@H]1[C@@H]1CC[C@H]2O1 too.
Result: 28 µM

Task: Repeat for the following compound: C/C=C/CO[C@H]1OC(=O)[C@H]2[C@@H]1[C@@H]1CC[C@H]2O1
Result: 57 µM

Task: Let us now turn to O=C1O[C@H](OCCCOP(=O)(O)O)[C@@H]2[C@H]1[C@H]1CC[C@@H]2O1
Result: 33 µM

Task: Another compound to look at: CCCCCO[C@H]1OC(=O)[C@H]2[C@@H]1[C@@H]1CC[C@H]2O1
Result: 20 µM

Task: Likewise for O=C1O[C@H](OCCCOP(=O)(Oc2ccccc2)Oc2ccccc2)[C@@H]2[C@H]1[C@H]1CC[C@@H]2O1 ?
Result: > 100 µM

Task: Now consider CC(C)O[C@H]1OC(=O)[C@H]2[C@@H]1[C@@H]1CC[C@H]2O1 and answer again.
Result: > 100 µM

Task: Also O=C1O[C@H](OC2CCCCC2)[C@@H]2[C@H]1[C@H]1CC[C@@H]2O1 , if possible.
Result: > 100 µM

Task: Would you kindly repeat that for O=C1OC(=O)C2C3CCC(O3)C12 (stereo not drawn) ?
Result: 27 µM

---

Tested on: SW480
Test: Growth inhibition of human SW480 cells at 100 uM after 72 hrs y MTT assay
Type: functional
Settings: Homo sapiens, SW480, 72 h; read-out: GI
OBSERVED_PROPERTY: inhibition of growth at 100 µM (%)
Entry rule: numbers only, all in %.

Some compounds with recorded inhibition of growth at 100 µM:
COMPOUND | REPORTED
CC1OC1CO[C@@H]1OC(=O)[C@H]2[C@@H]1[C@@H]1CC[C@H]2O1 (some centres undefined) | 17
O=C1O[C@H](OCC2CO2)[C@@H]2[C@H]1[C@H]1CC[C@@H]2O1 (stereo in doubt; 20) | 16
O=C1O[C@@H](OCC2CO2)[C@@H]2[C@H]1[C@H]1CC[C@@H]2O1 (stereo in doubt; 22) | 28

Please find the next compound below.
Task: # query: inhibition of growth at 100 µM of entry CC1OC1CO[C@H]1OC(=O)[C@H]2[C@@H]1[C@@H]1CC[C@H]2O1 (stereo in doubt; 24)
Result: 37

---

Tested on: A-431
Assay: Growth inhibition of human A431 cells at 100 uM after 72 hrs y MTT assay
Assay type: functional
OBSERVED_PROPERTY: growth inhibition (GI) (%)
Kindly provide the numeric value in % only, without the unit symbol.

COMPOUND | MEASUREMENT_UNIT | growth inhibition (GI)
O=C1O[C@@H](OCC2CO2)[C@@H]2[C@H]1[C@H]1CC[C@@H]2O1 (stereo in doubt; 22) | % | 28
CC1OC1CO[C@H]1OC(=O)[C@H]2[C@@H]1[C@@H]1CC[C@H]2O1 (stereo in doubt; 24) | % | 17
CC1OC1CO[C@H]1OC(=O)[C@H]2[C@@H]1[C@@H]1CC[C@H]2O1 (stereo in doubt; 23) | % | 35

Task: Form entry - test system: A-431; read-out: growth inhibition (GI); compound: O=C1O[C@H](OCC2CO2)[C@@H]2[C@H]1[C@H]1CC[C@@H]2O1 (stereo in doubt; 20)
Result: 18

---

Test system: MCF7
Assay: Growth inhibition of human MCF7 cells at 100 uM after 72 hrs y MTT assay
Format: functional
Conditions: Homo sapiens, MCF7, 72 h; read-out: GI
# Lookup of reported inhibition of growth at 100 µM keyed by entry
Numeric only. Scale: %

A selection of reference data follows.
COMPOUND | inhibition of growth at 100 µM [%]
O=C1O[C@@H](OCC2CO2)[C@@H]2[C@H]1[C@H]1CC[C@@H]2O1 (stereo in doubt; 22) | 40
O=C1O[C@H](OCC2CO2)[C@@H]2[C@H]1[C@H]1CC[C@@H]2O1 (stereo in doubt; 20) | 43
CC1OC1CO[C@@H]1OC(=O)[C@H]2[C@@H]1[C@@H]1CC[C@H]2O1 (some centres undefined) | 27

Turning now to a further record.
Task: Can you look up inhibition of growth at 100 µM on MCF7 for CC1OC1CO[C@H]1OC(=O)[C@H]2[C@@H]1[C@@H]1CC[C@H]2O1 (stereo in doubt; 24) ?
Result: 46

---

Assay: Growth inhibition of human BE(2)-C cells after 72 hrs y MTT assay
Format: functional
Below: a set of entries, each annotated with reported GI50.
Numbers only; they are read as µM.

Before answering, review these 4 worked examples.
COMPOUND | MEASUREMENT_UNIT | GI50
CCCCOC1OC(=O)[C@H]2[C@@H]1[C@@H]1CC[C@H]2O1 (single isomer, unassigned) | µM | 93
O=C1O[C@H](O)[C@@H]2[C@H]1[C@H]1CC[C@@H]2O1 | µM | 28
C/C=C/CO[C@H]1OC(=O)[C@H]2[C@@H]1[C@@H]1CC[C@H]2O1 | µM | 84
CC(C)O[C@H]1OC(=O)[C@H]2[C@@H]1[C@@H]1CC[C@H]2O1 | µM | 44

Task: What GI50 value was documented for this compound, CCCCCO[C@H]1OC(=O)[C@H]2[C@@H]1[C@@H]1CC[C@H]2O1 ?
Result: 38

Task: // next record C/C=C/CO[C@@H]1OC(=O)[C@H]2[C@@H]1[C@@H]1CC[C@H]2O1
Result: 63

Task: How about CCOP(=O)(OCC)OCCCO[C@H]1OC(=O)[C@H]2[C@@H]1[C@@H]1CC[C@H]2O1 ?
Result: 9

---

Experiment: Growth inhibition of human BE(2)-C cells after 72 hrs y MTT assay
Assay type: functional
Below, each entry is listed alongside its reported GI50.

// below: answered molecules
MOLECULE | REPORTED
O=C1O[C@H](OCCCOP(=O)(OCC(Cl)(Cl)Cl)OCC(Cl)(Cl)Cl)[C@@H]2[C@H]1[C@H]1CC[C@@H]2O1 | > 100 µM
CC(C)(C)O[C@H]1OC(=O)[C@H]2[C@@H]1[C@@H]1CC[C@H]2O1 | > 100 µM
CCCCCCO[C@@H]1OC(=O)[C@H]2[C@@H]1[C@@H]1CC[C@H]2O1 | > 100 µM

Task: Record request: GI50 value, item O=C1O[C@H](OC2CCCCC2)[C@@H]2[C@H]1[C@H]1CC[C@@H]2O1
Result: > 100 µM

Task: Repeat with CCO[C@H]1OC(=O)[C@H]2[C@@H]1[C@@H]1CC[C@H]2O1
Result: > 100 µM

Task: Please do the same for C=CCO[C@@H]1OC(=O)[C@H]2[C@@H]1[C@@H]1CC[C@H]2O1 as well.
Result: > 100 µM

Task: Param item: C#CCCCCO[C@H]1OC(=O)[C@H]2[C@@H]1[C@@H]1CC[C@H]2O1
Result: > 100 µM

Task: One more molecule: O=C1O[C@H](OCCCOP(=O)(Oc2ccccc2)Oc2ccccc2)[C@@H]2[C@H]1[C@H]1CC[C@@H]2O1
Result: > 100 µM

Measured values drawn from ChEMBL document CHEMBL2040765 for this set.
